METHOD NOTES: gradient 5% acetonitrile 3 min, to 50% in 2 min, to 85% in 15 min, held 3 min, 100 µL/min
STATED CONDITIONS: column: Zorbax Extend-C18 2.1 x 50 mm; eluents: water / acetonitrile, 0.1% formic acid
Entries get a class label from measured RP-LC retention time. See ranges: lower range (below 700 s), middle range (700 s to below 900 s), upper range (900 s or more)

{"MOLECULE": "COCc1cc2nn(CC(=O)N3CCc4ccccc43)c(=O)n2c(-c2ccccc2)n1", "CLASS LABEL": "middle range"}
{"MOLECULE": "CSc1cccc(NC(=O)C2CCCN(c3ncnc4c3nc3n4CCCCC3)C2)c1 (centres undefined)", "CLASS LABEL": "middle range"}
{"MOLECULE": "Cc1cccc(Nc2c(-c3ccccc3)nc3nc(C)cc(C)n23)c1", "CLASS LABEL": "middle range"}
{"MOLECULE": "O=c1c2scc(-c3ccc(Br)cc3)c2ncn1Cc1ccccn1", "CLASS LABEL": "upper range"}
{"MOLECULE": "CCOc1ccccc1-c1noc(Cn2c(=O)n(Cc3ccc(OC)cc3)c(=O)c3sccc32)n1", "CLASS LABEL": "upper range"}
{"MOLECULE": "CCN1CCN(CCNC(=O)c2csc(-c3ccc(N4CCCC4)nc3)n2)CC1", "CLASS LABEL": "lower range"}
{"MOLECULE": "Cc1ncc2c(SCC(=O)NCc3ccc(F)cc3F)ncnc2n1", "CLASS LABEL": "lower range"}
